Hello, the source for this data is ChEMBL document CHEMBL1125337, in case you need it.

Please respond with reported MIC for every item in the list.
# Tested on: Staphylococcus aureus
# test summary: Minimum inhibitory concentration against Staphylococcus aureus L 165
# Format: functional
Param answer (str): number followed by unit.

Q: Looking for the measured MIC of `CC(=O)N[C@@H]1[C@H](O[C@@H]2c3ccc(c(Cl)c3)Oc3cc4cc(c3O[C@@H]3O[C@@H](CO)[C@@H](O)[C@H](O)[C@@H]3NC(=O)CCCCCCC(C)C)Oc3ccc(cc3Cl)C[C@H]3NC(=O)[C@H](N)c5ccc(O)c(c5)Oc5cc(O)cc(c5)[C@H](NC3=O)C(=O)N[C@H]4C(=O)N[C@H]3C(=O)N[C@@H]2C(=O)N[C@H](C(=O)O)c2cc(O)cc(O[C@H]4O[C@H](CO)[C@@H](O)[C@@H](O)[C@@H]4O)c2-c2cc3ccc2O)O[C@@H](CO)[C@@H](O)[C@@H]1O` , can you help?
Ans: 0.125 µg/mL

Q: Value lookup for MIC; key = `NCCCNCCCCNCCCNC(=O)[C@H]1NC(=O)[C@H]2NC(=O)[C@H](NC(=O)[C@@H]3NC(=O)[C@H]4NC(=O)[C@@H](Cc5ccc(c(Cl)c5)Oc5cc3cc(c5O)Oc3ccc(cc3Cl)[C@H]2O)NC(=O)[C@H](N)c2ccc(O)c(c2)Oc2cc(O)cc4c2)c2ccc(O)c(c2)-c2c(O)cc(O)cc21`
Ans: 0.063 µg/mL

Q: Requested field: MIC. Item: `NCCNCCNC(=O)[C@H]1NC(=O)[C@H]2NC(=O)[C@H](NC(=O)[C@@H]3NC(=O)[C@H]4NC(=O)[C@@H](Cc5ccc(c(Cl)c5)Oc5cc3cc(c5O)Oc3ccc(cc3Cl)[C@H]2O)NC(=O)[C@H](N)c2ccc(O)c(c2)Oc2cc(O)cc4c2)c2ccc(O)c(c2)-c2c(O)cc(O)cc21`
Ans: 0.063 µg/mL

----------
# test summary: Association constant to Ac2-L-Lys-D-Ala-D-Ala determined at pH 9; Value ranges from 5E4-7.5E4
Provide the reported Ka of each item.
State the answer as a number, implicitly in M⁻¹.

Q: Return reported Ka; argument: `NCCNCCCNCCNC(=O)[C@H]1NC(=O)[C@H]2NC(=O)[C@H](NC(=O)[C@@H]3NC(=O)[C@H]4NC(=O)[C@@H](Cc5ccc(c(Cl)c5)Oc5cc3cc(c5O)Oc3ccc(cc3Cl)[C@H]2O)NC(=O)[C@H](N)c2ccc(O)c(c2)Oc2cc(O)cc4c2)c2ccc(O)c(c2)-c2c(O)cc(O)cc21`
Ans: 75000

Q: Ka for `NCCCNCCCNCCCNC(=O)[C@H]1NC(=O)[C@H]2NC(=O)[C@H](NC(=O)[C@@H]3NC(=O)[C@H]4NC(=O)[C@@H](Cc5ccc(c(Cl)c5)Oc5cc3cc(c5O)Oc3ccc(cc3Cl)[C@H]2O)NC(=O)[C@H](N)c2ccc(O)c(c2)Oc2cc(O)cc4c2)c2ccc(O)c(c2)-c2c(O)cc(O)cc21` ?
Ans: 75000

----------
# test summary: Association constant to Ac2-L-Lys-D-Ala-D-Ala determined at pH 9; Value ranges from (9.5E4-3.5E5)
Task for the reader: assign each of the following compounds its reported Ka.
Supply the numeric figure in M⁻¹, leaving out any unit text.

Q: So what's the measured Ka for this one? `CC(=O)N[C@@H]1[C@H](O[C@@H]2c3ccc(c(Cl)c3)Oc3cc4cc(c3O[C@@H]3O[C@@H](CO)[C@@H](O)[C@H](O)[C@@H]3NC(=O)CCCCCCC(C)C)Oc3ccc(cc3Cl)C[C@H]3NC(=O)[C@H](N)c5ccc(O)c(c5)Oc5cc(O)cc(c5)[C@H](NC3=O)C(=O)N[C@H]4C(=O)N[C@H]3C(=O)N[C@@H]2C(=O)N[C@H](C(=O)NCCCNCCNCCCN)c2cc(O)cc(O[C@H]4O[C@H](CO)[C@@H](O)[C@@H](O)[C@@H]4O)c2-c2cc3ccc2O)O[C@@H](CO)[C@@H](O)[C@@H]1O`
Ans: 350000

Q: Param item = `CC(=O)N[C@@H]1[C@H](O[C@@H]2c3ccc(c(Cl)c3)Oc3cc4cc(c3O[C@@H]3O[C@@H](CO)[C@@H](O)[C@H](O)[C@@H]3NC(=O)CCCCCCC(C)C)Oc3ccc(cc3Cl)C[C@H]3NC(=O)[C@H](N)c5ccc(O)c(c5)Oc5cc(O)cc(c5)[C@H](NC3=O)C(=O)N[C@H]4C(=O)N[C@H]3C(=O)N[C@@H]2C(=O)N[C@H](C(=O)NCCNCCN)c2cc(O)cc(O[C@H]4O[C@H](CO)[C@@H](O)[C@@H](O)[C@@H]4O)c2-c2cc3ccc2O)O[C@@H](CO)[C@@H](O)[C@@H]1O` ; retrieve measured Ka.
Ans: 350000

Q: Item `CC(=O)N[C@@H]1[C@H](O[C@@H]2c3ccc(c(Cl)c3)Oc3cc4cc(c3O[C@@H]3O[C@@H](CO)[C@@H](O)[C@H](O)[C@@H]3NC(=O)CCCCCCC(C)C)Oc3ccc(cc3Cl)C[C@H]3NC(=O)[C@H](N)c5ccc(O)c(c5)Oc5cc(O)cc(c5)[C@H](NC3=O)C(=O)N[C@H]4C(=O)N[C@H]3C(=O)N[C@@H]2C(=O)N[C@H](C(=O)NCCCNCCCCN)c2cc(O)cc(O[C@H]4O[C@H](CO)[C@@H](O)[C@@H](O)[C@@H]4O)c2-c2cc3ccc2O)O[C@@H](CO)[C@@H](O)[C@@H]1O` has what recorded Ka?
Ans: 350000

Q: For `CC(=O)N[C@@H]1[C@H](O[C@@H]2c3ccc(c(Cl)c3)Oc3cc4cc(c3O[C@@H]3O[C@@H](CO)[C@@H](O)[C@H](O)[C@@H]3NC(=O)CCCCCCC(C)C)Oc3ccc(cc3Cl)C[C@H]3NC(=O)[C@H](N)c5ccc(O)c(c5)Oc5cc(O)cc(c5)[C@H](NC3=O)C(=O)N[C@H]4C(=O)N[C@H]3C(=O)N[C@@H]2C(=O)N[C@H](C(=O)NCCCNCCCCNCCCN)c2cc(O)cc(O[C@H]4O[C@H](CO)[C@@H](O)[C@@H](O)[C@@H]4O)c2-c2cc3ccc2O)O[C@@H](CO)[C@@H](O)[C@@H]1O` , what is its reported Ka?
Ans: 350000
